Values from patent US8916576B2

// ROCK 1 (Homo sapiens (Human), UniProt Q13464) IC50 records

ROCK 1 (Homo sapiens (Human), UniProt Q13464) IC50 of CC(=O)Oc1cccc(-c2nc(Nc3ccc4[nH]ncc4c3)c3ccccc3n2)c1 [Example 272] is > 10 µM

As a next step, examine the compound that follows.
ROCK 1 (Homo sapiens (Human), UniProt Q13464) IC50 of COCCNC(=O)COc1cccc(-c2nc(Nc3ccc4[nH]ncc4c3)c3ccccc3n2)c1 [Example 54] is > 10 µM

----------
// reported IC50 for each item listed
Molecular target: ROCK2 (Homo sapiens (Human))
Sequence (O75116 whole entry, species assumed): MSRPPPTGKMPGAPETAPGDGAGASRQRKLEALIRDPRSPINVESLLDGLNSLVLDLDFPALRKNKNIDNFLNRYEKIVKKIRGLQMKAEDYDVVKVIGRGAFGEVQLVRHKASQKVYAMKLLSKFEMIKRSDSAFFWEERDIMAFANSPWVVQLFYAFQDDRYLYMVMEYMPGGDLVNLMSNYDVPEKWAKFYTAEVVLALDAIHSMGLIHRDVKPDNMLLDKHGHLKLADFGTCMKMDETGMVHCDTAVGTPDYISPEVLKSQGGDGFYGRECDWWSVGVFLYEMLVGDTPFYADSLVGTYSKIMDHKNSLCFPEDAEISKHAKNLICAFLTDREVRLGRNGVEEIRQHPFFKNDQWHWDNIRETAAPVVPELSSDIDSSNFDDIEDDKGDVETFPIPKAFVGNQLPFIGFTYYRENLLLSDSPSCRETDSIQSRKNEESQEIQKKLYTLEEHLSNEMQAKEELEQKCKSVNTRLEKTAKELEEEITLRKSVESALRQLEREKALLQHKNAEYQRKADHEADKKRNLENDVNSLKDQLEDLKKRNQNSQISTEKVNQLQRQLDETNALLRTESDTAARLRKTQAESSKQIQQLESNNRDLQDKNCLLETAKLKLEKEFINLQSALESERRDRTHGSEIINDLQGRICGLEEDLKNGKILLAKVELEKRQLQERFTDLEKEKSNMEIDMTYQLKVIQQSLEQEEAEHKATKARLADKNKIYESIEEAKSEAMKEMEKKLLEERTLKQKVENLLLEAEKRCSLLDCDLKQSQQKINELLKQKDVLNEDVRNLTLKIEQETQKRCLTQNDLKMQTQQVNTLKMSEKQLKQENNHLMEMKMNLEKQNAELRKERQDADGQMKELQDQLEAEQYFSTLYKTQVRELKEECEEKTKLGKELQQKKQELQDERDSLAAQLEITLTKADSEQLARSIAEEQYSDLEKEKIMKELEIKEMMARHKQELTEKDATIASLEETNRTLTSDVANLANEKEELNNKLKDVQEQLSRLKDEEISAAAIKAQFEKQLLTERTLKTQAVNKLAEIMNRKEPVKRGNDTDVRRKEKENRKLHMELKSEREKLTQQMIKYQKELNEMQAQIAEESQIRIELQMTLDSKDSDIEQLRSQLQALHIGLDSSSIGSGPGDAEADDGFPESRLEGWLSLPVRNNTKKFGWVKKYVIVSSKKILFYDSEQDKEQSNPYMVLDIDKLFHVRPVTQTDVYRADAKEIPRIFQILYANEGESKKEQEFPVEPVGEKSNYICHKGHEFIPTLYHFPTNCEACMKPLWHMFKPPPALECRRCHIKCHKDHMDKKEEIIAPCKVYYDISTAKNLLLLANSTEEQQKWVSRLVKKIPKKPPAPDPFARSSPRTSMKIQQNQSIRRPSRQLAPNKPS
Test: Inhibition of ROCK2 (Rho kinase inhibition assay; ROCK-II Assay Kit / IMAP)
Format: biochemical
Settings: Table 1; repeat determinations
Text: Methods of determining kinase inhibition are well known in the art. For example, kinase activity of an enzyme and the inhibitory capacity of a test compound can be determined by measuring enzyme specific phosphorylation of a substrate. Commercial assays and kits can be employed. For example, kinase inhibition can be determined using an IMAP® assay (Molecular Devices). […] Proximity to the nanoparticle results in increased fluorescence polarization. […] Inhibition of ROCK2 by various compounds was determined. […]
Express your answer in µM, writing the number without its unit.

Item: CN(C)CCC(=O)Nc1ccccc1-c1nc(Nc2ccc3[nH]ncc3c2)c2ccccc2n1 | IC50: 5.3

Item: CCCC(=O)Nc1cccc(-c2nc(Nc3ccc4[nH]ncc4c3)c3cc(OC)c(OCCOC)cc3n2)c1 | IC50: 0.024

Item: CCCCC(=O)Nc1cccc(-c2nc(Nc3ccc4[nH]ncc4c3)c3ccccc3n2)c1 | IC50: 0.029

As a next step, examine the compound that follows.
Item: CC(=O)Oc1ccccc1-c1nc(Nc2ccc3[nH]ncc3c2)c2ccccc2n1 | IC50: 23
